Here, each record is paired with measured IC50 data.
Biological target: Human recombinant MMP-2 (Homo sapiens, UniProt P08253)
Construct: made in house; host or cells: MMP-2-transfected p2AHT2 cells
Sequence (P08253 110-660): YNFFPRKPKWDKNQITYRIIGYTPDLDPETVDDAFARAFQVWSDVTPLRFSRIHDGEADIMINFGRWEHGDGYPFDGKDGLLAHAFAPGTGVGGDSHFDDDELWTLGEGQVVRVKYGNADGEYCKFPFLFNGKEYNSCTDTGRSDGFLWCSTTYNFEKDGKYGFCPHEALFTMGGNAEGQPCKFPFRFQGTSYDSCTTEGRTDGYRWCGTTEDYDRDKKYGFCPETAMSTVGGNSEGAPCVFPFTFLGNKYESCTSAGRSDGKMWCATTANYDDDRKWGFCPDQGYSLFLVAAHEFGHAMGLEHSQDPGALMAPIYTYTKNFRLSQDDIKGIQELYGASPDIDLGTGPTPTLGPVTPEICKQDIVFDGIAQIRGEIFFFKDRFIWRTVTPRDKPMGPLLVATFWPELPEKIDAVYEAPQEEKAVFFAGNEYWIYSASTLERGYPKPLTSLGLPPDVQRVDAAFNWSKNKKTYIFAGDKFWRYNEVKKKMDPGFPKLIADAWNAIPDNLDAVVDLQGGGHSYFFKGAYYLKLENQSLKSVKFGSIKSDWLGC
Assay: In vitro MMP inhibition, IC50 determination (fluorogenic substrate I)
Assay type: biochemical
Details: value outside parentheses

Compound	Experimental system	Result unit	IC50
O=C(NO)C1(S(=O)(=O)c2ccc(OCCCc3cccc(-c4csc5ccccc45)c3)cc2)CCOCC1 [Example 631]	Human recombinant MMP-2 (Homo sapiens, UniProt P08253)	nM	2140
O=C(NO)C1(S(=O)(=O)c2ccc(OCCOCC3CCCCO3)cc2)CCOCC1 (stereo not shown) [Example 661]	Human recombinant MMP-2 (Homo sapiens, UniProt P08253)	nM	78.2
O=C(NO)C1(S(=O)(=O)c2ccc(OCCOc3ccc4c(c3)OCO4)cc2)CCOCC1 [Example 665]	Human recombinant MMP-2 (Homo sapiens, UniProt P08253)	nM	11.6
O=C(NCCOc1ccc(S(=O)(=O)C2(C(=O)NO)CCOCC2)cc1)c1ccc(-c2cc(C(F)(F)F)ccc2Cl)o1 [Example 611]	Human recombinant MMP-2 (Homo sapiens, UniProt P08253)	nM	733

* * *

target: Human recombinant MMP-13 (Homo sapiens); construct: made in house; host or cells: baculovirus / insect cells; assay: In vitro MMP inhibition, Ki determination (fluorogenic substrate II); assay type: biochemical; conditions: value in parenthesis
Measured endpoint: Ki

Molecule	Measured endpoint	Result
O=C(NO)C1(S(=O)(=O)c2ccc(OCCCc3cccc(Br)c3)cc2)CCOCC1 [Example 154]	Ki	0.95 nM
O=C(NO)C1(S(=O)(=O)c2ccc(OCCCc3cccc(-c4cccc(F)c4)c3)cc2)CCOCC1 [Example 161]	Ki	20.3 nM
O=C(NO)C1(S(=O)(=O)c2ccc(OCCCc3cccc(-c4ccco4)c3)cc2)CCOCC1 [Example 97]	Ki	5.57 nM
O=C(NO)C1(S(=O)(=O)c2ccc(OCCCc3cccc(-c4ccc(Cl)cc4Cl)c3)cc2)CCOCC1 [Example 171]	Ki	12.5 nM
COc1ccc(/C(C#N)=C/CCCOc2ccc(S(=O)(=O)C3(C(=O)NO)CCN(C4CC4)CC3)cc2)cc1 [Example 233]	Ki	0.137 nM
O=C(NO)C1(S(=O)(=O)c2ccc(OCCc3cccc(-c4cc(F)cc(F)c4)c3)cc2)CCOCC1 [Example 110]	Ki	11.4 nM
Cc1cc(OC(F)(F)F)ccc1NC(=O)CCCOc1ccc(S(=O)(=O)C2(C(=O)NO)CCOCC2)cc1 [Example 229]	Ki	0.27 nM
